# percent viability annotations
# System: MCF10A
# test.summary: percent viability (nuclei count relative to siNT); higher = more viable cells
# details: 20 nM; 72 h
Quick reminder: number only, in %, skip the unit.

In [3]: df
Out[3]:
                              sequence_code  experimental_value
0  GAACCCAUGAGGUUGAGGCUGCAGU [hsa-miR-1273d]                39.1

Task: Report percent viability for CUGGCGGAGCCCAUUCCAUGCCA [hsa-miR-4730]
Output: 18.2

Task: Report percent viability for AAGGGGCAGGGACGGGUGGCCC [hsa-miR-6743-5p]
Output: 29.4

Task: Report percent viability for UGCCCCAUCUGUGCCCUGGGUAGGA [hsa-miR-3189-5p]
Output: 52.5

---

# 5+ nucleoli phenotype percent effect annotations
# Tested on: MCF10A
# test.summary: 5+ nucleoli phenotype percent effect (relative to siNT 0% and siKIF11 100%); higher = more cells with five or more nucleoli
# details: 20 nM; 72 h
Quick reminder: number only, in %, skip the unit.

Illustrative cases are given below, each with its answer.
>>> df
                              sequence_code  measurement_unit  experimental_value
0  CCCCGGUGUUGGGGCGCGUCUGC [hsa-miR-4783-3p]                 %                13.9
1  UUGCUCCUGACUCUGUGCCCACA [hsa-miR-6772-3p]                 %               -4.99
2      GUGACAUCACAUAUACGGCAGC [hsa-miR-489]                 %               -33.1

Task: Check MCF10A data and give 5+ nucleoli phenotype percent effect for GAGCAGGCGAGGCUGGGCUGAA [hsa-miR-4690-5p] .
Output: -41.1

Task: Check MCF10A data and give 5+ nucleoli phenotype percent effect for UCCCUGAGACCCUAACUUGUGA [hsa-miR-125b-5p] .
Output: 17.3

Task: Check MCF10A data and give 5+ nucleoli phenotype percent effect for AAAAGUACUUGCGGAUUUUGCU [hsa-miR-548k] .
Output: 36.4

Task: Check MCF10A data and give 5+ nucleoli phenotype percent effect for UGACCGAUUUCUCCUGGUGUUC [hsa-miR-29c-5p] .
Output: -8.5

Task: Check MCF10A data and give 5+ nucleoli phenotype percent effect for UUCAAGUAAUCCAGGAUAGGCU [hsa-miR-26a-5p] .
Output: 17.8

Task: Check MCF10A data and give 5+ nucleoli phenotype percent effect for CAAAACCGCAGUAACUUUUGU [hsa-miR-548at-3p] .
Output: -23.4

Task: Check MCF10A data and give 5+ nucleoli phenotype percent effect for GUCACUGAUGUCUGUAGCUGAG [hsa-miR-4420] .
Output: 1.76

Task: Check MCF10A data and give 5+ nucleoli phenotype percent effect for CAAAAACUGCAAUUACUUUCA [hsa-miR-548ae] .
Output: 38.6

Task: Check MCF10A data and give 5+ nucleoli phenotype percent effect for CUGUGGGCUCAGCGCGUGGGG [hsa-miR-4322] .
Output: -30.6

Task: Check MCF10A data and give 5+ nucleoli phenotype percent effect for GUGCAUUGUAGUUGCAUUGCA [hsa-miR-33a-5p] .
Output: -0.156

Task: Check MCF10A data and give 5+ nucleoli phenotype percent effect for CACACAUAGCAGGUGUAUAUA [hsa-miR-4789-3p] .
Output: 39.4

Task: Check MCF10A data and give 5+ nucleoli phenotype percent effect for AGUGCCUGCUAUGUGCCAGGCA [hsa-miR-1271-3p] .
Output: 4.16

Every entry's value here was drawn from the supplement of paper PMC10899765.
